tested on: Hs578T complex spheroid growth, percent test/control; assay: Anticancer human tumor Hs578T cell line growth inhibition [AhR]; details: curve of first compound; second compound 0.1 µM;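 further: luminescent viability signal as a proxy for spheroid growth; spheroids exposed to agents for one week after three days of growth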
value kind: IC50 (nM)

P = CC1COCCN1c1cc(-c2ccnn2C)c2ccnc(-c3ccn[nH]3)c2n1 (stereo unspecified) + Cc1cncc(-c2nc(NCCc3c[nH]c4ccccc34)c3ncn(C(C)C)c3n2)c1
Q = O=C(C=Cn1cnc(-c2cc(C(F)(F)F)cc(C(F)(F)F)c2)n1)NNc1cnccn1 + CC(CO)NC(=O)c1cc(-c2ccc(Cl)cc2)nn(-c2cnn(C)c2)c1=O
R = O=C(C=Cc1cccc(S(=O)(=O)Nc2ccccc2)c1)NO + Cc1ccccc1N=Nc1ccc(NC(=O)c2ccnn2C)c(C)c1
Query: Sort the entries above numerically by IC50, high end first. Note for the reader: the ranking is given by listing the labels in the order requested.
Response: R, P, Q
(R: 1850 nM, P: 589 nM, Q: 305 nM)

These data points were gathered from PubChem BioAssay AID1919010.
